Reported AC50 values are given for each entry in this list.
- assayed_system: Adenosylmethionine-8-amino-7-oxononanoate aminotransferase (Mycobacterium tuberculosis, UniProt P9WQ81)
- Sequence (P9WQ81 whole entry): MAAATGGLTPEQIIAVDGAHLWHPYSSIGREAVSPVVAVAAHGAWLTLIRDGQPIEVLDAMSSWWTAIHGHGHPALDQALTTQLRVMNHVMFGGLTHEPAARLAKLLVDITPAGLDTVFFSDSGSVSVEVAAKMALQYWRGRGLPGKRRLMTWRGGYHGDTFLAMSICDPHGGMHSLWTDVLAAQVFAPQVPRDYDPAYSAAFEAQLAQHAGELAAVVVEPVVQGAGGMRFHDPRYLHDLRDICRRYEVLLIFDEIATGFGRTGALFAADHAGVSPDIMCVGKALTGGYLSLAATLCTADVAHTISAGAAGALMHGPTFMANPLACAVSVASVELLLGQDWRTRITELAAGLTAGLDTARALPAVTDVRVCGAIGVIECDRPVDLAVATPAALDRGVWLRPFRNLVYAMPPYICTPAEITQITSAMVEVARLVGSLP
- assay_overview: Mycobacterium tuberculosis BioA enzyme inhibitor Measured in Biochemical System Using Plate Reader - 2163-02_Inhibitor_Dose_CherryPick_Activity.
- Assay type: functional, Mycobacterium tuberculosis UT205
Activity calls are given as the source filed them. The rule behind the calls is not given here.

> print(dat)
                                   molecule    measured.value
1  Cc1nc2nc(SCC(=O)NCCCN3CCOCC3)nn2c(C)c1Cc1ccccc1  5.43 µM (active)
2  C/C=C/c1ccc2c(c1)O[C@@H](CN(C)C(=O)Cc1cccnc1)[C@H](C)CN([C@H](C)CO)S2(=O)=O  10.3 µM (active)
3  CN(C(=O)CSc1nc2ccccc2c(=O)n1-c1ccccc1Cl)C1CCS(=O)(=O)C1 (stereo unspecified)  2.22 µM (active)
4  CC(Oc1ccc2c(-c3ccccc3)cc(=O)oc2c1)C(=O)NCc1ccccn1 (stereo unspecified)  8.99 µM (active)
5  O=C(CSc1nnc(-c2cccnc2)[nH]1)Nc1ccnc2ccccc12  6.07 µM (active)

Pending molecule:
Exercise: Consider the molecule `O=C(CSc1nncs1)N1c2ccccc2Sc2ccccc21` and give its measured AC50.
Key: 1.56 µM (active)

====

These records show AC50 for Cytochrome P450 1A2 (Homo sapiens).

Example entries begin here.
> print(dat)
                                   compound          measured.value
1  Cn1cccc1C(=O)N1CCC2(CCCN(c3ccccc3)C2)CC1    10 µM (inconclusive)
2  O=c1[nH]n(-c2cccc3cccnc23)c(=O)c2ccccc12  6.31 µM (inconclusive)
3  COCCn1c(=O)c(-c2ccc(Cl)cc2)nc2cnc(N3CCOCC3)nc21     1 µM (inconclusive)

Exercise: Missing value: AC50, Cytochrome P450 1A2 (Homo sapiens), entry `O=c1c(CCc2ccccc2)nc2cnc(N3CCOCC3)nc2n1CCc1ccccc1` . Fill in?
Key: 25.1 µM (inconclusive)

Exercise: Field: AC50 (Cytochrome P450 1A2 (Homo sapiens)). Entry: CN(C(=O)CCCOc1ccc2[nH]c(=O)ccc2c1)C1CCCCC1 [CILOSTAMIDE]
Key: 31.6 µM (inconclusive)

====

Reported IC50 values for a set of molecules
- assayed_system: Rac GTPase-activating protein 1 (Homo sapiens)
- Sequence (Q9H0H5 whole entry): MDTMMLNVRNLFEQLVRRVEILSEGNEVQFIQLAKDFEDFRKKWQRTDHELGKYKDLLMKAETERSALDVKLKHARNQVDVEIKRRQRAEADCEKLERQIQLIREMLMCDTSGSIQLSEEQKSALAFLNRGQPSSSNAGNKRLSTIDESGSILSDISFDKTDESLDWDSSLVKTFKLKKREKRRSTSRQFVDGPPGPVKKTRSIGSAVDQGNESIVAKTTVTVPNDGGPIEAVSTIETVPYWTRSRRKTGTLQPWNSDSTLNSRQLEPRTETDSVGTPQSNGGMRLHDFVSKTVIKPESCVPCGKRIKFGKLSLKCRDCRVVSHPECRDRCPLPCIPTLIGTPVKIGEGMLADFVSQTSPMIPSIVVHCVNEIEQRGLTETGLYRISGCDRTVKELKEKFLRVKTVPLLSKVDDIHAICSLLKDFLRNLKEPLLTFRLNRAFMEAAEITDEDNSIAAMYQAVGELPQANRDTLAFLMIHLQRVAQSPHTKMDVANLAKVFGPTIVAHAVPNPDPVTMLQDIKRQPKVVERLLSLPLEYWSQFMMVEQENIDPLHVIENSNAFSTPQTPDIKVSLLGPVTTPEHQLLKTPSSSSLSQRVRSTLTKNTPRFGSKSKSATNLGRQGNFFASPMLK
- assay_overview: blockers of MgcRacGAP-driven Rac1 GTP hydrolysis – biochemical, ADP Hunter fluorescence, primary and confirmatory, confirmation (AID 624330)
- Type: functional
The source made the active and inactive calls. No rule for the calls is given here.

The following molecules have reported results that may help.
> print(dat)
                                 mol.smiles    measured.value
1  Cc1cc(C)c(C)c(S(=O)(=O)N2CCN(c3ccc(O)cc3)CC2)c1C  85.9 µM (active)
2         Oc1ccc(NCc2ccc(OCc3ccccc3)cc2)cc1  60.5 µM (active)
3  COc1cc(/C=C/C(=O)OCC(=O)c2ccc(OC(F)F)cc2)ccc1O    64 µM (active)
4     Cc1cccc(/C=N/c2ccc3c4c(cccc24)CC3)c1O    20 µM (active)
5        COC(=O)c1cc(NCc2cccs2)ccc1N1CCOCC1   135 µM (active)
6  Cc1ccc(NC(=O)CCNCc2ccco2)cc1S(=O)(=O)N(C)C   229 µM (active)

Exercise: I have this molecule here, `Nc1ccc2[nH]c(C3CCCCC3)nc2c1` , and I need its recorded IC50.
Key: 70.2 µM (active)

Exercise: Please look up its IC50: `CCOc1ccc(NCc2cccn2-c2nnc(N3CCC(C(=O)NCCCN4CCCCC4)CC3)s2)cc1`
Key: 64.7 µM (active)

Exercise: Return reported IC50; argument: `CN1C2CCC1/C(=C/c1ccccn1)C(=O)/C2=C\c1ccccn1`
Key: 62.5 µM (active)
